assay: Metabolic stability in human liver microsomes; assay type: in vitro ADME
Measured Metabolic Stability Study H = human accompanies every entry in the list below.
Report the figure in µL/min/mg without appending any unit label.

Consider C[C@H](NC(=O)Nc1ccc(S(=O)(=O)Nc2ccc(CC(C)(C)N)cc2)cc1)c1ccc(-c2cnccn2)c(Cl)c1Cl . Its measured Metabolic Stability Study H = human is 19.9

Entry COc1cc(S(=O)(=O)Cc2ccc3c(c2)CCN(C)C3)ccc1NC(=O)NC(C)c1cccc(Cl)c1Cl (stereo not shown) ; Metabolic Stability Study H = human = 69.3

Note to self: Metabolic Stability Study H = human recorded for COc1cccc(F)c1C(C)NC(=O)Nc1ccc(S(=O)(=O)Cc2ccc3c(c2)CNC3)cc1 (stereo not shown) was 55.5

The reported Metabolic Stability Study H = human of the compound CC(NC(=O)Nc1ccc(S(=O)(=O)Cc2ccc3c(c2)CN(CC2CC2)C3)cc1)c1ccccc1 (stereo not shown) was 183.8

// recorded Metabolic Stability Study H = human for CC(NC(=O)Nc1ccc(S(=O)(=O)Cc2nc3c(s2)CN(C)CC3)cc1)c1cccc(Cl)c1Cl (stereo not shown) : 261.6

Value of measured Metabolic Stability Study H = human for the entry Cc1cc(S(=O)(=O)Cc2ccc3c(c2)CN(C)C3)ccc1NC(=O)NC(C)c1ccccc1 (stereo not shown) : 72.5

Lab note: CC(NC(=O)Nc1ccc(S(=O)(=O)Cc2ccc3c(c2)CN(C)C3)cc1Cl)c1ccccc1 (stereo not shown) gave Metabolic Stability Study H = human of 160.6
